pKi: −log10 of the molar value.
Collected from the literature: pKi of various molecules toward UniProt P14780.
Sequence (P14780 whole entry): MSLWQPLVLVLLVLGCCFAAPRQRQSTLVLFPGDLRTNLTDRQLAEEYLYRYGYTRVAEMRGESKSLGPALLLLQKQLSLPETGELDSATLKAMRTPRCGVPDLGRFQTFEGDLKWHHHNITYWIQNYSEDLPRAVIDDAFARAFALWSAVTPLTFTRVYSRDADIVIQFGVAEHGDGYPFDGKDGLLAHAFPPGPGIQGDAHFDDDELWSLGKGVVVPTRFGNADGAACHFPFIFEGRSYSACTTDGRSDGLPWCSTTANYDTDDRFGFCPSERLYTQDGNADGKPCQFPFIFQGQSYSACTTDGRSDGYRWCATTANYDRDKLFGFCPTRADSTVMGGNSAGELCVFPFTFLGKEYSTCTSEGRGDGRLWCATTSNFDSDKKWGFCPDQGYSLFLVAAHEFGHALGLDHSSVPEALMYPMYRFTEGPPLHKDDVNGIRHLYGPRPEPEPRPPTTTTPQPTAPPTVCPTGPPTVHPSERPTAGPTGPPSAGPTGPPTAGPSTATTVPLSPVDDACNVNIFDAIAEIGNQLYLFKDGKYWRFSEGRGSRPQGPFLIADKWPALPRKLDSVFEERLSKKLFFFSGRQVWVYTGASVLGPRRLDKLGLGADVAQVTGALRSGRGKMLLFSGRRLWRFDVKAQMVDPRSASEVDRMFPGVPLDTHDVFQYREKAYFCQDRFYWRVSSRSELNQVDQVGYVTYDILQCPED
Readout: pKi

>>> measurement("CC(=O)N1CC[C@H](C(=O)Nc2ccc(COc3ccnc4cc(C(F)(F)F)ccc34)cc2)[C@@H](C(=O)NO)C1")
"< 5.67"
>>> measurement("Cc1cc(COc2ccc(NC(=O)[C@@H]3[C@@H](C(=O)NO)CCCN3C)cc2)c2ccccc2n1")
"< 5.67"
>>> measurement("COc1cc(COc2ccc3c(c2)NCCN([C@H](CCCCNS(C)(=O)=O)C(=O)NO)S3(=O)=O)cc(OC)c1")
"< 5.67"
>>> measurement("C[C@H](NC(=O)[C@H](Cc1ccccc1)NS(=O)(=O)c1ccc([N+](=O)[O-])cc1)C(=O)Nc1n[nH]c(=S)s1")
4.74
